# Test system: K562
# EXPERIMENT SUMMARY: NCI tumour cell line growth inhibition, 48 h
The source made the active and inactive calls. No stated cut-off is given here; in the data, active = GI50 up to about 1.1 µM and inactive = higher. Peptide text beside a SMILES is read from it.
OBSERVED PROPERTY: GI50

- N=C(N)SCc1cccc(-c2nc3ccccc3c(=O)o2)c1: > 100 µM (inactive)
- CC#COS(=O)(=O)c1ccc(C)cc1: 36.8 µM (inactive)
- Cn1c(-c2c(C3=CC(=O)N(c4ccccc4)C3=O)c3ccccc3n2C)cc2ccccc21: 69.2 µM (inactive)
- O=C1Nc2ccc(Br)cc2/C1=N/N1C(=O)C(=O)N(C2CCCCC2)C1=S: 3.69 µM (inactive)
- COC(=O)CC1CCN(C#N)CC1CC[N+](=O)[O-] (centres undefined): > 100 µM (inactive)
- CO/N=C(\C)c1ccc(Nc2c3ccccc3nc3occc23)cc1: 0.195 µM (active)
- CC(C)CC(NC(=O)C(CC(C)C)NC(=O)C(Cc1c[nH]cn1)NC(=O)C(C)NC(=O)C(NC(=O)C(C)NC(=O)C(Cc1c[nH]c2ccccc12)NC(=O)C(CCC(=O)O)NC(=O)C(N)Cc1ccccc1)C(C)C)C(N)=O (centres undefined) (H-FEWAVAHLL-NH2; configuration not given here): > 12.5 µM (inactive)
- O=C(Cn1c(=O)oc2ccccc21)N(c1ccccc1)c1ccccc1: > 100 µM (inactive)
- CCCCCCCC1(N=[N+]=[N-])C(=O)Nc2ccccc2C1=O (centres undefined): 16.4 µM (inactive)
